# assaySystem: T1, TNFR1 (Homo sapiens, UniProt P19438)
# T1 chain: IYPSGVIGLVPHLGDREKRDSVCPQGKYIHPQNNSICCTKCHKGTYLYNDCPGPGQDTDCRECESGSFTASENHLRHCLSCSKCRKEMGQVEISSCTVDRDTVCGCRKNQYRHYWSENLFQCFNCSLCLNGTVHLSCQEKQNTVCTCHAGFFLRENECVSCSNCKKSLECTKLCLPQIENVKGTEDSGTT
# assayExplanation: yeast display SC50
readoutLabel: apparent Kd (screen) (nM)

[[record]]
binder = "L75D (designed binder) MTLQELLREEALRRAEAEAFRYALELLAEKFPEQKEYLLDLAEEIESQIRSLSGVDVEDVRKFLDKEWAWVKELDAEHPAELAEVEAARAARLAELRAEVEAKVAA"
uom = "nM"
recordednumber = 0.539


A = A87E (designed binder) MTLQELLREEALRRAEAEAFRYALELLAEKFPEQKEYLLDLAEEIESQIRSLSGVDVEDVRKFLDKEWAWVKELLAEHPAELAEVEEARAARLAELRAEVEAKVAA
B = E73G (designed binder) MTLQELLREEALRRAEAEAFRYALELLAEKFPEQKEYLLDLAEEIESQIRSLSGVDVEDVRKFLDKEWAWVKGLLAEHPAELAEVEAARAARLAELRAEVEAKVAA
C = A42C (designed binder) MTLQELLREEALRRAEAEAFRYALELLAEKFPEQKEYLLDLCEEIESQIRSLSGVDVEDVRKFLDKEWAWVKELLAEHPAELAEVEAARAARLAELRAEVEAKVAA
# ascending order, key=apparent Kd (screen) A ranking is expressed here by listing the labels in the requested order. A, B, C
(A: 0.446 nM, B: 0.718 nM, C: 1.05 nM)
